Data credit: ChEMBL document CHEMBL3853331

# Assay text: Plasma concentration in Wistar rat at 10 mg/kg, po measured after 1 hr
# Assay type: ADME, organism-based
Measurement type: concentration at 1 h (nM)
Numbers only, in nM.

# input // concentration at 1 h lookup, key: O=C(Nc1ccc(F)cc1)N1N=C(c2ccncc2)CC1c1ccc(F)cc1 (stereo unspecified)
# output 270

====

# Assay text: Drug uptake in Wistar rat CSF at 10 mg/kg, po measured after 1 hr
# Assay type: ADME, organism-based, Cerebrospinal fluid
# Study conditions: read-out: Drug uptake
Measurement type: concentration at 1 h (nM)
Answers are plain numbers, in nM.

# input // concentration at 1 h lookup, key: O=C(Nc1ccc(F)cc1)N1N=C(c2ccncc2)CC1c1ccc(F)cc1 (stereo unspecified)
# output 19
